# GI50 values compiled below
Tested on: MOLT-4
Assay: NCI tumour cell line growth inhibition, 48 h
Calls of active or inactive are those of the source. Rule as the data show it: active = GI50 up to about 1.1 µM and inactive = higher.
assay-metric: GI50

{"compound": "O=C(Nc1ccn(C2CC(O)C(COC(c3ccccc3)(c3ccccc3)c3ccccc3)O2)c(=O)n1)c1ccccc1 (stereo not drawn)", "tgt": "MOLT-4", "assay-metric": "GI50", "result": "2.16 µM (inactive)"}
{"compound": "O=C(CN1CCCCC1)N1CCc2c([nH]c3ccccc23)C1c1cccnc1 (stereo not drawn)", "tgt": "MOLT-4", "assay-metric": "GI50", "result": "> 100 µM (inactive)"}
{"compound": "COc1ccc(CC2(O)C3CC4CCC2C4C3)cc1 (stereo not drawn)", "tgt": "MOLT-4", "assay-metric": "GI50", "result": "45 µM (inactive)"}

====

Measurement record for HCT-15; quantity recorded: GI50.
Where a SMILES comes first, the peptide text is derived from it.
assay-metric: GI50

{"compound": "N#C[C@H]1Nc2ccccc2[C@@H](O)C1O (stereo partly drawn)", "result": "> 100 µM"}
{"compound": "CCC(C)C(NC(=O)C1CCCN1C(=O)C(CC(C)C)NC(=O)C(CC(C)C)NC(=O)C(N)CC(C)C)C(=O)NC(C(=O)NCC(=O)NC(CC(N)=O)C(=O)NC(CC(C)C)C(=O)NC(CC(C)C)C(=O)NC(CC(C)C)C(N)=O)C(C)C (stereo not drawn) (H-LLLPIVGNLLL-NH2; configuration not given here)", "result": "> 50 µM"}
{"compound": "CC(=O)NC1C(OCc2ccccc2)OC(COC(=O)CCCCCCCCCCNC(=O)CCNc2ccc([N+](=O)[O-])c3[nH]c4ccc(O)cc4c(=O)c23)C(O)C1OC(C)C(=O)N[C@H](C(=O)N[C@H](CCC(=O)O)C(N)=O)C(C)C (stereo partly drawn)", "result": "> 100 µM"}

====

System: K562
Assay: NCI tumour cell line growth inhibition, 48 h
Activity calls are given as the source filed them. Rule as the data show it: active = GI50 up to about 1.1 µM and inactive = higher. Residues, ends and D or L forms follow the SMILES beside them. *: point of attachment. Boc = CC(C)(C)OC(=O)*
Entries and their GI50 values follow.
assay-metric: GI50

{"molecule": "CCN(CC)c1ccc2cc(-c3nnc(-c4ccccc4)o3)c(=O)oc2c1", "result": "1.4 µM (inactive)"}
{"molecule": "CC1(C)CC(O)CC(C)(C)N1O [TEMPOL HYDROXYLAMINE]", "result": "> 100 µM (inactive)"}
{"molecule": "CCCCCCCCCCCCN1[C@H]2CCC[C@H]2C(O)[C@@H]2CCC[C@@H]21 (some centres not stated)", "result": "> 100 µM (inactive)"}
{"molecule": "O=c1c2ccccc2nc(Cc2nc(-c3ccc(Cl)cc3)cs2)n1-c1ccc(Cl)cc1", "result": "5.01 µM (inactive)"}
{"molecule": "CC1NOC(=O)C1/N=N/c1ccccc1Br (configuration not stated)", "result": "22.9 µM (inactive)"}
{"molecule": "O=C1NC(=O)C(c2c[nH]c3ccccc23)=C1c1cnc[nH]1", "result": "5.61 µM (inactive)"}
{"molecule": "COc1ccc(/C=C2/SC(c3ccccc3)N(NC(=O)CCCCCCCCC(=O)NN3C(=O)/C(=C\\c4ccc(OC)c(OC)c4)SC3c3ccccc3)C2=O)cc1OC (configuration not stated)", "result": "6.59 µM (inactive)"}
{"molecule": "S=c1c2nc[nH]c2ncn1CCSC1=NC=NC2=NC=NC21 (configuration not stated)", "result": "30.6 µM (inactive)"}
{"molecule": "O=C1N/C(=N/N=C/C(O)C(O)C(O)C(O)CO)N/C1=C\\c1cccs1 (configuration not stated)", "result": "> 100 µM (inactive)"}
{"molecule": "Cc1ccc(S(=O)(=O)N/N=C(/c2nc3ccc([N+](=O)[O-])cc3nc2O)C(O)c2ccc(C(O)/C(=N\\NS(=O)(=O)c3ccc(C)cc3)c3nc4ccc([N+](=O)[O-])cc4nc3O)cc2)cc1 (configuration not stated)", "result": "13 µM (inactive)"}
{"molecule": "CN1C(=O)C(=CN(C)c2ccccc2)C(=O)N(C)C1=O", "result": "> 100 µM (inactive)"}
{"molecule": "Nc1ccn(C2CC3OCC3O2)c(=O)n1 (configuration not stated)", "result": "> 100 µM (inactive)"}
{"molecule": "COC(=O)Nc1nc2cc(S(=O)(=O)NC(CC(C)C)C(=O)OC)ccc2[nH]1 (configuration not stated)", "result": "3.06 µM (inactive)"}
{"molecule": "CNC(=O)CNC(=O)N(C[C@@H]1CCCN1C(=O)[C@H](CC(C)C)NC(=O)OC(C)(C)C)C(C)C", "result": "> 100 µM (inactive)"}
{"molecule": "O=c1ccn(C2OC(COC3CCCCO3)C(OC3CCCCO3)C2OC2CCCCO2)c(=O)n1-c1ccccc1 (configuration not stated)", "result": "91.6 µM (inactive)"}
{"molecule": "O=[N+]([O-])c1ccc(-n2nnc(C3=NCCN3)c2-c2ccccc2)cc1", "result": "> 100 µM (inactive)"}
{"molecule": "O=c1s[s+]([O-])c2ccccc12 (configuration not stated)", "result": "45.7 µM (inactive)"}
{"molecule": "CC(C(=O)O)c1ccc(-c2ccccc2)c(F)c1 (configuration not stated) [FLURBIPROFEN]", "result": "> 100 µM (inactive)"}
{"molecule": "C[C@]12CCC(=O)C=C1CC[C@@H]1[C@@H]2[C@@H](O)C[C@@]2(C)[C@H]1CC[C@]2(O)C(=O)COC(=O)C1CCCC1", "result": "> 100 µM (inactive)"}
{"molecule": "IC[P+]1(c2ccccc2)CCCC1", "result": "35.9 µM (inactive)"}
{"molecule": "O=c1c(Sc2ncccn2)c(Sc2ncccn2)cnn1CCl", "result": "3.39 µM (inactive)"}
{"molecule": "O=C1C(Nc2ccccc2)=CC2=NCCc3n[nH]c1c32", "result": "38.5 µM (inactive)"}
{"molecule": "CO[C@H]1c2cccc3cccc(c23)[C@@H]1n1[nH]c(=O)n(C(C)(C)C)c1=O", "result": "> 100 µM (inactive)"}
{"molecule": "Cc1cccc(C)c1NC(=O)CCC(=O)/N=C(\\N)NC#N", "result": "> 100 µM (inactive)"}
{"molecule": "CC(NC(=O)C(NC(=O)OC(C)(C)C)C(C)C)C(=O)N1CCCC1C(=O)NCC(=O)NC(C(=O)NCC(=O)O)C(C)C (configuration not stated) (Boc-VAPGVG-OH; configuration not given here)", "result": "> 100 µM (inactive)"}
{"molecule": "Nc1ccc(S(=O)(=O)Nc2nccs2)cc1 [SULFATHIAZOLE]", "result": "> 100 µM (inactive)"}
{"molecule": "COc1cc(/C=C/C(=O)O)ccc1C(=O)OCc1ccccc1", "result": "> 100 µM (inactive)"}

Just for reference, ChEMBL document CHEMBL1201862 is where these values come from.
